Where these numbers come from: paper PMC3394890

CONDITIONS: female, human, in vivo, iv, 1.5 mg/kg
Bridge positions count the residues as written; N and C are the ends. Square brackets hold non-standard residues; d marks the D form. Peptide text beside a SMILES is read from it. * marks the point of attachment. X1 = CC[C@H](C)CCCCC(=O)*; Dab = NCC[C@H](N)C(=O)O
EXPERIMENTAL ENDPOINT: Cmax (ng/mL)
Your answer should be a plain number; it is taken to be in ng/mL.

Req: What measured Cmax goes with CC[C@H](C)CCCCC(=O)N[C@@H](CCN)C(=O)N[C@H](C(=O)N[C@@H](CCN)C(=O)N[C@H]1CCNC(=O)[C@H]([C@@H](C)O)NC(=O)[C@H](CCN)NC(=O)[C@H](CCN)NC(=O)[C@H](CC(C)C)NC(=O)[C@@H](Cc2ccccc2)NC(=O)[C@H](CCN)NC1=O)[C@@H](C)O [polymyxin B1] (X1-[Dab]T[Dab][Dab][Dab][dF]L[Dab][Dab]T; lactam 4-C) ?
Resp: 4830
